System: tobacco mosaic virus (TMV)
Procedure details: Anti-TMV in vivo inactivation
Parameters: species or system tobacco mosaic virus (host Nicotiana tabacum L.cv.Xanthi NN)
Condition details: treatment dose 100 μg/mL
So basically: Relative inhibition rate (%) In vivo inactivation at 10% or higher? That is True. Lower than 10%? That is False.

Solved entries:
Compound	Category label
C[C@@H]1N[C@H](C(=O)NN=Cc2ccc(Cl)c(Cl)c2)Cc2c1[nH]c1ccccc21 [Ic-7]	True
C[C@@H]1N[C@H](C(=O)NN=Cc2ccc([N+](=O)[O-])cc2)Cc2c1[nH]c1ccccc21 [Ic-4]	True
C[C@@H]1N[C@H](C(=O)NN=Cc2ncc[nH]2)Cc2c1[nH]c1ccccc21 [Ic-21]	True

Decide: is the reported value of Relative inhibition rate (%) In vivo inactivation for Cc1nccc2c1[nH]c1cc(OC(=O)C(C)(C)C)ccc12 [Ia-8] equal to or greater than 10%? False

Decide: is the reported value of Relative inhibition rate (%) In vivo inactivation for C[C@@H]1N[C@H](C(=O)NN=Cc2ccccn2)Cc2c1[nH]c1ccccc21 [Ic-17] equal to or greater than 10%? False

Decide: is the reported value of Relative inhibition rate (%) In vivo inactivation for O=C(O)[C@@H]1Cc2c([nH]c3ccccc23)[C@H](c2cccnc2)N1 [Ib-6] equal to or greater than 10%? False

Decide: is the reported value of Relative inhibition rate (%) In vivo inactivation for COc1cc2c3c(c4cc(OC)c(OC)cc4c2cc1OC)CN1CCC[C@H]1C3.O=C(O)C[C@@H](O)C(=O)O [NK-007, reference compound] equal to or greater than 10%? True

###

Test system: armyworms
Format: in vivo
Condition details: concentration 600 mg/kg
Quantity: Armyworm Mortality (%)
Hi! Could you send only the number? It should be in %, unit omitted.

Consider the reported Armyworm Mortality (%) for these molecules:
Molecule	Armyworm Mortality (%)
C[C@@H]1N[C@H](C(=O)NN=Cc2ccc(C(C)(C)C)cc2)Cc2c1[nH]c1ccccc21 [Ic-2]	10
C[C@@H]1N[C@H](C(=O)NN=Cc2cccnc2)Cc2c1[nH]c1ccccc21 [Ic-16]	20
CC(=NNC(=O)[C@@H]1Cc2c([nH]c3ccccc23)[C@H](C)N1)c1ccccc1 [Ic-27]	20

Now for a further molecule.
Record C[C@H]1N[C@@H](C(=O)O)Cc2c1[nH]c1ccccc21 [Ib-2] . Reported Armyworm Mortality (%): 10

###

Tested on: Fusarium graminearumt
Procedure details: microbe, parasite or virus in culture
Format: cell-based
Condition details: 50 mg/kg
We begin with a simple list: items and their reported Bactericidal activity (%) Fusarium graminearumt.
Hi! Could you send only the number? It should be in %, unit omitted.

Smiles record	Assayed target	Measurement
Cc1nccc2c1[nH]c1cc(OC(=O)C(C)(C)C)ccc12	Fusarium graminearumt	78.6
CC(=NNC(=O)[C@@H]1Cc2c([nH]c3ccccc23)[C@H](C)N1)c1ccccc1	Fusarium graminearumt	61.5
O=C(O)[C@@H]1Cc2c([nH]c3ccccc23)[C@H](c2cccnc2)N1	Fusarium graminearumt	31.0
CCOC(=O)[C@@H]1Cc2c([nH]c3ccccc23)[C@H](c2cccnc2)N1	Fusarium graminearumt	28.6

Record C[C@@H]1N[C@H](C(=O)NNC(=O)c2ccccc2)Cc2c1[nH]c1ccccc21 . Reported Bactericidal activity (%) Fusarium graminearumt: 38.5

Record C[C@@H]1N[C@H](C(=O)NN=CC2CCCCC2)Cc2c1[nH]c1ccccc21 . Reported Bactericidal activity (%) Fusarium graminearumt: 30.8

Measured values drawn from patent US10208033B2 for this set.
